Values were extracted from BigSolDB 2.1.

setupConditions: in ethanol, 308.15 K

molSmiles: CCOC(=O)CCC(=O)O[C@H]1[C@H](O[C@@H]2[C@@H](C)[C@H](O[C@H]3C[C@@](C)(OC)[C@@H](O)[C@H](C)O3)[C@@H](C)C(=O)O[C@H](CC)[C@@](C)(O)[C@H](O)[C@@H](C)C(=O)[C@H](C)C[C@@]2(C)O)O[C@H](C)C[C@@H]1N(C)C
solubility (mole fraction): 0.0242

---

setupConditions: in n-hexane, 298.15 K

molSmiles: CCOC(=O)CCC(=O)O[C@H]1[C@H](O[C@@H]2[C@@H](C)[C@H](O[C@H]3C[C@@](C)(OC)[C@@H](O)[C@H](C)O3)[C@@H](C)C(=O)O[C@H](CC)[C@@](C)(O)[C@H](O)[C@@H](C)C(=O)[C@H](C)C[C@@]2(C)O)O[C@H](C)C[C@@H]1N(C)C
solubility (mole fraction): 0.000158

---

setupConditions: in isopropanol, 303.15 K

molSmiles: CCOC(=O)CCC(=O)O[C@H]1[C@H](O[C@@H]2[C@@H](C)[C@H](O[C@H]3C[C@@](C)(OC)[C@@H](O)[C@H](C)O3)[C@@H](C)C(=O)O[C@H](CC)[C@@](C)(O)[C@H](O)[C@@H](C)C(=O)[C@H](C)C[C@@]2(C)O)O[C@H](C)C[C@@H]1N(C)C
solubility (mole fraction): 0.0187

---

setupConditions: in n-hexane, 318.15 K

molSmiles: CCOC(=O)CCC(=O)O[C@H]1[C@H](O[C@@H]2[C@@H](C)[C@H](O[C@H]3C[C@@](C)(OC)[C@@H](O)[C@H](C)O3)[C@@H](C)C(=O)O[C@H](CC)[C@@](C)(O)[C@H](O)[C@@H](C)C(=O)[C@H](C)C[C@@]2(C)O)O[C@H](C)C[C@@H]1N(C)C
solubility (mole fraction): 0.000562

---

setupConditions: in ethanol, 288.15 K

molSmiles: CCOC(=O)CCC(=O)O[C@H]1[C@H](O[C@@H]2[C@@H](C)[C@H](O[C@H]3C[C@@](C)(OC)[C@@H](O)[C@H](C)O3)[C@@H](C)C(=O)O[C@H](CC)[C@@](C)(O)[C@H](O)[C@@H](C)C(=O)[C@H](C)C[C@@]2(C)O)O[C@H](C)C[C@@H]1N(C)C
solubility (mole fraction): 0.00762

---

setupConditions: in THF, 313.15 K
measuredProperty: solubility (mole fraction)

molSmiles: CCOC(=O)CCC(=O)O[C@H]1[C@H](O[C@@H]2[C@@H](C)[C@H](O[C@H]3C[C@@](C)(OC)[C@@H](O)[C@H](C)O3)[C@@H](C)C(=O)O[C@H](CC)[C@@](C)(O)[C@H](O)[C@@H](C)C(=O)[C@H](C)C[C@@]2(C)O)O[C@H](C)C[C@@H]1N(C)C
readoutValue: 0.081

---

setupConditions: in n-hexane, 308.15 K
measuredProperty: solubility (mole fraction)

molSmiles: CCOC(=O)CCC(=O)O[C@H]1[C@H](O[C@@H]2[C@@H](C)[C@H](O[C@H]3C[C@@](C)(OC)[C@@H](O)[C@H](C)O3)[C@@H](C)C(=O)O[C@H](CC)[C@@](C)(O)[C@H](O)[C@@H](C)C(=O)[C@H](C)C[C@@]2(C)O)O[C@H](C)C[C@@H]1N(C)C
measuredProperty: solubility (mole fraction)
readoutValue: 0.000286
